# Assay comment: total protein half-life in vivo (active degradation + dilution); higher = more stable protein
# Test conditions: wild type E. coli NCM3722; growth: C-lim chemostat; doubling time 6 h
Measure name: total protein half-life in vivo (h)
Expressed in h, but write only the number.

| Sequence entry | Measure name | Display unit | Test result |
| --- | --- | --- | --- |
| MMKNILAIQSHVVYGHAGNSAAEFPMRRLGANVWPLNTVQFSNHTQYGKWTGCVMPPSHLTEIVQGIAAIDKLHTCDAVLSGYLGSAEQGEHILGIVRQVKAANPQAKYFCDPVMGHPEKGCIVAPGVAEFHVRHGLPASDIIAPNLVELEILCEHAVNNVEEAVLAARELIAQGPQIVLVKHLARAGYSRDRFEMLLVTADEAWHISRPLVDFGMRQPVGVGDVTSGLLLVKLLQGATLQEALEHVTAAVYEIMVTTKAMQEYELQVVAAQDRIAKPEHYFSATKL | total protein half-life in vivo | h | 5 |

We now examine a further sequence.
Item MSKRLPPLNALRVFDAAARHLSFTRAAEELFVTQAAVSHQIKSLEDFLGLKLFRRRNRSLLLTEEGQSYFLDIKEIFSQLTEATRKLQARSAKGALTVSLLPSFAIHWLVPRLSSFNSAYPGIDVRIQAVDRQEDKLADDVDVAIFYGRGNWPGLRVEKLYAEYLLPVCSPLLLTGEKPLKTPEDLAKHTLLHDASRRDWQTYTRQLGLNHINVQQGPIFSHSAMVLQAAIHGQGVALANNVMAQSEIEAGRLVCPFNDVLVSKNAFYLVCHDSQAELGKIAAFRQWILAKAAAEQEKFRFRYEQ [P0A9F6] has what recorded total protein half-life in vivo? 6.59

----------
total protein half-life in vivo reference
# Assay comment: total protein half-life in vivo (active degradation + dilution); higher = more stable protein
# Test conditions: wild type E. coli NCM3722; growth: P-lim chemostat; doubling time 6 h
Expressed in h, but write only the number.

Consider the following illustrative entries.
| Sequence entry | total protein half-life in vivo, h |
| --- | --- |
| MKKMLLATALALLITGCAQQTFTVQNKQTAVAPKETITHHFFVSGIGQKKTVDAAKICGGAENVVKTETQQTFVNGLLGFITLGIYTPLEARVYCSK | 6.65 |
| MSQTVHFQGNPVTVANSIPQAGSKAQTFTLVAKDLSDVTLGQFAGKRKVLNIFPSIDTGVCAASVRKFNQLATEIDNTVVLCISADLPFAQSRFCGAEGLNNVITLSTFRNAEFLQAYGVAIADGPLKGLAARAVVVIDENDNVIFSQLVDEITTEPDYEAALAVLKA [P0A862] | 6.09 |
| MKCPVCHQGEMVSGIKDIPYTFRGRKTVLKGIHGLYCVHCEESIMNKEESDAFMAQVKAFRASVNAETVAPEFIVKVRKKLSLTQKEASEIFGGGVNAFSRYEKGNAQPHPSTIKLLRVLDKHPELLNEIR | 1.13 |

We now examine a further sequence.
Item MTLDLPRRFPWPTLLSVCIHGAVVAGLLYTSVHQVIELPAPAQPISVTMVTPADLEPPQAVQPPPEPVVEPEPEPEPIPEPPKEAPVVIEKPKPKPKPKPKPVKKVQEQPKRDVKPVESRPASPFENTAPARLTSSTATAATSKPVTSVASGPRALSRNQPQYPARAQALRIEGQVKVKFDVTPDGRVDNVQILSAKPANMFEREVKNAMRRWRYEPGKPGSGIVVNILFKINGTTEIQ has what recorded total protein half-life in vivo? 3.17

----------
# Assay comment: total protein half-life in vivo (active degradation + dilution); higher = more stable protein
# Test conditions: E. coli NCM3722 delta-clpP; growth: N-lim chemostat; doubling time 6 h
Measure name: total protein half-life in vivo (h)
Expressed in h, but write only the number.

Item MNNSAFTFQTLHPDTIMDALFEHGIRVDSGLTPLNSYENRVYQFQDEDRRRFVVKFYRPERWTADQILEEHQFALQLVNDEVPVAAPVAFNGQTLLNHQGFYFAVFPSVGGRQFEADNIDQMEAVGRYLGRMHQTGRKQLFIHRPTIGLNEYLIEPRKLFEDATLIPSGLKAAFLKATDELIAAVTAHWREDFTVLRLHGDCHAGNILWRDGPMFVDLDDARNGPAVQDLWMLLNGDKAEQRMQLETIIEAYEEFSEFDTAEIGLIEPLRAMRLVYYLAWLMRRWADPAFPKNFPWLTGEDYWLRQTATFIEQAKVLQEPPLQLTPMY [P0C0K3] has what recorded total protein half-life in vivo? 5.41

----------
total protein half-life in vivo reference
# Assay comment: total protein half-life in vivo (active degradation + dilution); higher = more stable protein
# Test conditions: wild type E. coli NCM3722; growth: N-lim chemostat; doubling time 6 h
Expressed in h, but write only the number.

| Sequence entry | total protein half-life in vivo, h |
| --- | --- |
| MKPSSSNSRSKGHAKARRKTREELDQEARDRKRQKKRRGHAPGSRAAGGNTTSGSKGQNAPKDPRIGSKTPIPLGVTEKVTKQHKPKSEKPMLSPQAELELLETDERLDALLERLEAGETLSAEEQSWVDAKLDRIDELMQKLGLSYDDDEEEEEDEKQEDMMRLLRGN [P0A8H6] | 3.59 |
| MSAFTPASEVLLRHSDDFEQSRILFAGDLQDDLPARLDTAASRAHTQQFHHWQVLSRQMGDNARFSLVATADDVADCDTLIYYWPKNKPEAQFQLMNLLSLLPVGTDIFVVGENRSGVRSAEQMLADYAPLNKVDSARRCGLYFGRLEKQPVFDAEKFWGEYSVDGLTVKTLPGVFSRDGLDVGSQLLLSTLTPHTKGKVLDVGCGAGVLSVAFARHSPKIRLTLCDVSAPAVEASRATLAANGVEGEVFASNVFSEVKGRFDMIISNPPFHDGMQTSLDAAQTLIRGAVRHLNSGGELRIVANAFLPYPDVLDETFGFHEVIAQTGRFKVYRAIMTRQAKKG | 5.68 |

We now examine a further sequence.
Item MNSHNITNESLALALMLVVVAILISHKEKLALEKDILWSVGRAIIQLIIVGYVLKYIFSVDDASLTLLMVLFICFNAAWNAQKRSKYIAKAFISSFIAITVGAGITLAVLILSGSIEFIPMQVIPIAGMIAGNAMVAVGLCYNNLGQRVISEQQQIQEKLSLGATPKQASAILIRDSIRAALIPTVDSAKTVGLVSLPGMMSGLIFAGIDPVKAIKYQIMVTFMLLSTASLSTIIACYLTYRKFYNSRHQLVVTQLKKK has what recorded total protein half-life in vivo? 5.87

----------
# Assay comment: total protein half-life in vivo (active degradation + dilution); higher = more stable protein
# Test conditions: wild type E. coli NCM3722; growth: C-lim chemostat; doubling time 12 h
Classify by measured total protein half-life in vivo: Met if it is equal to or exceeds 9 h, Not met if it is smaller.

Before answering, review these 5 worked examples.
| Sequence entry | Answer label |
| --- | --- |
| MKFKTNKLSLNLVLASSLLAASIPAFAVTGDTDQPIHIESDQQSLDMQGNVVTFTGNVIVTQGTIKINADKVVVTRPGGEQGKEVIDGYGKPATFYQMQDNGKPVEGHASQMHYELAKDFVVLTGNAYLQQVDSNIKGDKITYLVKEQKMQAFSDKGKRVTTVLVPSQLQDKNNKGQTPAQKKGN [P0ADV1] | Met |
| MPLLKLWAGSLVMLAAVSLPLQAASPVKVGSKIDTEGALLGNIILQVLESHGVPTVNKVQLGTTPVVRGAITSGELDIYPEYTGNGAFFFKDENDAAWKNAQQGYEKVKKLDSEHNKLIWLTPAPANNTWTIAVRQDVAEKNKLTSLADLSRYLQEGGTFKLAASAEFIERADALPAFEKAYGFKLGQDQLLSLAGGDTAVTIKAAAQQTSGVNAAMAYGTDGPVAALGLQTLSDPQGVQPIYAPAPVVRESVLREYPQMAQWLQPVFASLDAKTLQQLNASIAVEGLDAKKVAADYLKQKGWTK | Met |
| MKTLIVSTVLAFITFSAQAAAFQVTSNEIKTGEQLTTSHVFSGFGCEGGNTSPSLTWSGVPEGTKSFAVTVYDPDAPTGSGWWHWTVVNIPATVTYLPVDAGRRDGTKLPTGAVQGRNDFGYAGFGGACPPKGDKPHHYQFKVWALKTEKIPVDSNSSGALVGYMLNANKIATAEITPVYEIK | Not met |
| MDALSRLLMLNAPQGTIDKNCVLGSDWQLPHGAGELSVIRWHALTQGAAKLEMPTGEIFTLRPGNVVLLPQNSAHRLSHVDNESTCIVCGTLRLQHSARYFLTSLPETLFLAPVNHSVEYNWLREAIPFLQQESRSAMPGVDALCSQICATFFTLAVREWIAQVNTEKNILSLLLHPRLGAVIQQMLEMPGHAWTVESLASIAHMSRASFAQLFRDVSGTTPLAVLTKLRLQIAAQMFSRETLPVVVIAESVGYASESSFHKAFVREFGCTPGEYRERVRQLAP | Met |
| MNYEIKQEEKRTVAGFHLVGPWEQTVKKGFEQLMMWVDSKNIVPKEWVAVYYDNPDETPAEKLRCDTVVTVPGYFTLPENSEGVILTEITGGQYAVAVARVVGDDFAKPWYQFFNSLLQDSAYEMLPKPCFEVYLNNGAEDGYWDIEMYVAVQPKHH | Not met |

Can MKRQKRDRLERAHQRGYQAGIAGRSKEMCPYQTLNQRSQWLGGWREAMADRVVMA [P0AFW2] be said to have total protein half-life in vivo at or above 9 h? Not met

Recorded values, source the supplement of paper PMC11246515.
